Listing of entries alongside the reported pIC50.
MEASUREMENT_TARGET: C-X-C chemokine receptor type 4 (Homo sapiens, UniProt P61073)
Sequence (P61073 whole entry, the tested form may be a part): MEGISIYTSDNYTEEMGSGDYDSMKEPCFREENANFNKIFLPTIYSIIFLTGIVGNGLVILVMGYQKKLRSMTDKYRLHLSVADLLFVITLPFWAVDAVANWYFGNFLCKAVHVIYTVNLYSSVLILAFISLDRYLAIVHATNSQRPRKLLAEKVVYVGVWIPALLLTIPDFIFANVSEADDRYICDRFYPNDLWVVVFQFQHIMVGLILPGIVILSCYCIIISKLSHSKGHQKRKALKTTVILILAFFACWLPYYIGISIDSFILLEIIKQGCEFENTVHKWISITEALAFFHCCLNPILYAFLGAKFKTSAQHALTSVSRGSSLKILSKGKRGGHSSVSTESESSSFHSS
ASSAY_NOTES: Antagonist activity at human DEF3-fused CXCR4 receptor expressed in HEK293T cells co-expressing DAN1-HA-Galphaq/i5 assessed as inhibition of CXCL12-induced IP3 accumulation after 90 mins in presence of [3H]-myo-inositol by scintillation counting analysis
Format: functional, cell-based
Hey, just a heads up that pIC50 is the negative log base 10 of the concentration in molar.

// returns pIC50 for Clc1ccccc1CN1CCC(CNCc2cccc(-c3ccccc3)c2)CC1 with C-X-C chemokine receptor type 4 (Homo sapiens, UniProt P61073); value = 5.90

// returns pIC50 for Clc1ccccc1CN1CCC(CNCc2ccccc2)CC1 with C-X-C chemokine receptor type 4 (Homo sapiens, UniProt P61073); value = 5.70

// returns pIC50 for Cc1cccc(CNCC2CCN(Cc3ccccc3Cl)CC2)c1 with C-X-C chemokine receptor type 4 (Homo sapiens, UniProt P61073); value = 6.00

----------
MEASUREMENT_TARGET: C-X-C chemokine receptor type 4 (Homo sapiens)
ASSAY_NOTES: Antagonist activity at human DEF3-RLuc fused CXCR4 receptor expressed in HEK293T cells co-expressing DEF3-Beta-arrestin-2-mVenus assessed as inhibition of CXCL12-induced beta-arrestin2 recruitment preincubated for 60 mins followed by CXCL12 addition measured after 20 mins by BRET assay
Type: cell-based
Listing of entries alongside the reported pIC50.
Hey, just a heads up that pIC50 is the negative log base 10 of the concentration in molar.

Consider the following illustrative entries.
Clc1ccccc1CN1CCC(CNCc2cccc(-c3ccccc3)c2)CC1    5.60
Clc1ccccc1CN1CCC(CNCc2ccccc2)CC1    5.40

Let us examine a further case.
The recorded pIC50 for entry Cc1cccc(CNCC2CCN(Cc3ccccc3Cl)CC2)c1 equals 5.50

----------
Listing of entries alongside the reported inhibition.
MEASUREMENT_TARGET: C-X-C chemokine receptor type 4 (Homo sapiens, UniProt P61073)
ASSAY_NOTES: Displacement of [125I]-CXCL12 from human CXCR4 receptor expressed in HEK293T cell membranes at 100 uM after 2 hrs by scintillation counting analysis relative to IT1t
# unit: % | format: bare number

Consider the following illustrative entries.
Cc1ccc(CNCC2CCN(Cc3ccccc3Cl)CC2)cc1    62
Cc1cccc(CNCC2CCN(Cc3ccc(Cl)cc3)CC2)c1    86
Clc1cccc(CNCC2CCN(Cc3ccccc3Cl)CC2)c1    65

The recorded inhibition for entry Clc1ccccc1CN1CCC(CNCc2c[nH]cn2)CC1 equals 96

----------
MEASUREMENT_TARGET: C-X-C chemokine receptor type 4 (Homo sapiens)
ASSAY_NOTES: Displacement of CXCL12-red from human NLuc-tagged CXCR4 receptor expressed in HEK293T cell membranes after 2 hrs by NanoBRET assay
ASSAY_ENDPOINT: pIC50
Hey, just a heads up that pIC50 is the negative log base 10 of the concentration in molar.

Cc1cccc(CNCC2CCN(Cc3ccccc3Cl)CC2)c1    6.00
Clc1ccccc1CN1CCC(CNCc2cccc(-c3ccccc3)c2)CC1    6.20

Let us examine a further case.
The recorded pIC50 for entry Clc1ccccc1CN1CCC(CNCc2ccccc2)CC1 equals 6.10

----------
MEASUREMENT_TARGET: C-X-C chemokine receptor type 4 (Homo sapiens)
ASSAY_NOTES: Displacement of [125I]-CXCL12 from human CXCR4 receptor expressed in HEK293T cell membranes after 2 hrs by scintillation counting analysis
Classes based on IC50: lowest (below 500 nM), middle (500 nM to below 2000 nM), highest (2000 nM or more)

Answered examples (10):
Clc1ccccc1CN1CCC(CNCc2ccc3c(c2)OCO3)CC1    lowest
NCCC1CCN(Cc2ccccc2Cl)CC1    highest
c1ccc(CNCC2CCN(Cc3ccccc3)CC2)cc1    highest
Clc1ccc(CNCC2CCN(Cc3ccccc3Cl)CC2)cc1    middle
Oc1ccc(CNCC2CCN(Cc3ccccc3Cl)CC2)cc1    lowest
Clc1ccccc1CN1CCC(CNCc2cccc(Cl)c2Cl)CC1    highest
COc1ccccc1CN1CCC(CN)CC1    highest
Clc1ccccc1CN1CCC(CNCc2c[nH]cn2)CC1    middle
COc1ccccc1CN1CCC(CNCc2ccccc2)CC1    highest
COc1ccc(CNCC2CCN(Cc3ccccc3Cl)CC2)cc1    middle

Incoming: Into which category would you place Cc1cccc(CNCC2CCN(Cc3ccccc3Cl)CC2)c1 ?
Outgoing: lowest

Incoming: Into which category would you place Oc1ccc(CN2CCC(CNCc3ccccc3)CC2)cc1 ?
Outgoing: highest

Incoming: Into which category would you place Clc1ccccc1CN1CCC(CNCc2ccccc2)CC1 ?
Outgoing: lowest

Incoming: Into which category would you place Cc1ccc(CNCC2CCN(Cc3ccccc3Cl)CC2)cc1 ?
Outgoing: middle

Incoming: Into which category would you place Clc1ccccc1CN1CCC(CNCC2CCCCC2)CC1 ?
Outgoing: highest

Incoming: Into which category would you place Cc1ccccc1CN1CCC(CN)CC1 ?
Outgoing: highest

Incoming: Into which category would you place NCC1CCN(Cc2ccccc2Cl)CC1 ?
Outgoing: highest
